Measured values drawn from patent US20140011799A1 for this set.

Molecular target: hepatic lipase (HL) (Homo sapiens)
Construct: made in house; host or cells: COS cells (conditioned medium, partially purified)
Sequence (P11150 23-499): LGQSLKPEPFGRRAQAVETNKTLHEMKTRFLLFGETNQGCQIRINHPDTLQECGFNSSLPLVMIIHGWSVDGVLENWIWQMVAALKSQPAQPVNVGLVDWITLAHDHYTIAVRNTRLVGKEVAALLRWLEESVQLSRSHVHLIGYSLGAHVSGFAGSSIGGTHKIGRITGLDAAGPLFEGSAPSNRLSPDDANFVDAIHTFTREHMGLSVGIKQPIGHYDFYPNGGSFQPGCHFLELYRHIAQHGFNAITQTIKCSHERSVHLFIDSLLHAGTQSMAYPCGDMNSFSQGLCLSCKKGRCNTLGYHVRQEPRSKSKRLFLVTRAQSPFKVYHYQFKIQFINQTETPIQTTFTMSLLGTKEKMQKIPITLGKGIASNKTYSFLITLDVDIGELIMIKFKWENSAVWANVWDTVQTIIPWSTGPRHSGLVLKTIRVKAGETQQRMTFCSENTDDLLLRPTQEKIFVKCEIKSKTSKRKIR
Test: Hepatic lipase (HL) enzymatic assay, fluorescent substrate A10070 in DMPG vesicles
Assay type: biochemical
Details: HL partially purified from conditioned media of COS cells; compound preincubated 30 min at 37° C; read-out: HL IC50
Readout Label: IC50 (nM)
Your answer is read as nM, so omit the unit and give the number.

For orientation, consider the following solved cases.
CS(=O)(=O)C(c1nnc(CNS(N)(=O)=O)o1)c1nc2ccc(Br)cc2s1 (stereo not shown) [Example 114] ... 220
CS(=O)(=O)C(c1nnc(CNS(N)(=O)=O)o1)c1nc2ccc(-c3ccc(O)nc3)cc2s1 (stereo not shown) [Example 133] ... 467
NCCS(=O)(=O)C(c1nnc(CC2SC(=O)NC2=O)o1)c1nc2ccc(-c3ccc(C(=O)N4CCOCC4)cc3)cc2s1 (stereo not shown) [Example 185] ... 70
CS(=O)(=O)C(c1nnc(CNS(N)(=O)=O)o1)c1nc2cc(-c3ccc(F)nc3)ccc2s1 (stereo not shown) [Example 233] ... 18

Fill blank: measured IC50 of the compound CS(=O)(=O)C(c1nnc(CC2SC(=O)NC2=O)o1)c1nc2cc(C(F)(F)F)c(-c3ccccc3)cc2s1 (stereo not shown) [Example 164] is ____. 22

* * *

biological target: Endothelial lipase (EL) (Homo sapiens, UniProt Q9Y5X9); construct: HT-1080 cells that were transformed using RAGE technology (Athersys) to overexpress endogenous EL; endogenous in cells; conditioned medium used; assay: Endothelial lipase (EL) enzymatic assay, fluorescent substrate A10070 in DMPG vesicles; assay type: biochemical; conditions: EL from conditioned media of HT-1080 cells; compound preincubated 30 min at 37° C; read-out: EL IC50
Sequence (Q9Y5X9 21-500): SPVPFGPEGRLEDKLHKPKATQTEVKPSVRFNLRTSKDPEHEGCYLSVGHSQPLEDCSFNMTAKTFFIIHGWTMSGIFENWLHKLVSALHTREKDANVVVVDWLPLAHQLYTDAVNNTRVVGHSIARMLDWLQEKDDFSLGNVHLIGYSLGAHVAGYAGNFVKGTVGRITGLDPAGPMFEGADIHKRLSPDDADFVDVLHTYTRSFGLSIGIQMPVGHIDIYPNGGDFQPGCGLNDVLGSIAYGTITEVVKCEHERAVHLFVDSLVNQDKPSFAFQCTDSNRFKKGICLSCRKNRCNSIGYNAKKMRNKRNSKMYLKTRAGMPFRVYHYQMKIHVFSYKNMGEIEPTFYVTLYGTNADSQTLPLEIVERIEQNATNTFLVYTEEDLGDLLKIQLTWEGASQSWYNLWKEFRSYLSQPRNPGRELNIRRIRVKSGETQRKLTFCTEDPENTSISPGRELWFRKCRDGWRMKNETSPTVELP
pIC50: −log10 of the molar value.
pIC50 values by entry

COCCS(=O)(=O)C(c1nnc(CNS(N)(=O)=O)o1)c1nc2ccc(-c3ccccc3)cc2s1 (stereo not shown) [Example 119] ... > 8.00
C[C@]1(Cc2nnc(C(c3nc4ccc(-c5ccccc5)cc4s3)S(C)(=O)=O)o2)OC(=O)NC1=O (stereo partly shown) [Example 42] ... > 8.00
COCc1ccc(-c2ccc3nc(C(c4nnc(CNS(N)(=O)=O)o4)S(=O)(=O)Cc4cc(Cl)cc(Cl)c4)sc3c2)cc1 (stereo not shown) [Example 235] ... 8.40

Fill blank: measured pIC50 of the molecule C[C@]1(Cc2nnc(C(c3nc4ccc(-c5ccc(C(=O)N6CCOCC6)cc5)cc4s3)S(C)(=O)=O)o2)OC(=O)NC1=O (stereo partly shown) [Example 109] is ____. > 8.00
